# procedureDetails: yeast display, Sf9 membrane polyspecificity reagent, FACS + sequencing; frameworks hold sequencing errors
testReadout: polyreactivity (PSR sort gate)

Example cases with answers are listed next.
{"chain": "QVQLVESGGGLVQAGGSLRLSCAASGFIFDHNAMGWYRQAPGKERELVAAISGSGGSTYYADSVKGRFTISRDNAKNTVYLQMNSLKPEDTAVYYCNALKRTRLVRYYYWGQGTQVNVSS", "testReadout": "polyreactivity (PSR sort gate)", "measValue": "high polyreactivity"}
{"chain": "QVQLVESGGGLVQAGGSLRLICAASGRIFLGYAMGWYRKAPGKERELVAAITSSSGITYYADSVKGRFTISRDNAKNSVYLQMNSLKPEDTAVYYCAARASSGRRTKRYNYWGQGTKVTVSS", "testReadout": "polyreactivity (PSR sort gate)", "measValue": "low polyreactivity"}
{"chain": "QVQLVESGGGLVQAGGSLRLSCAASGITFRWYAMGWYRQAPGKERELVALIDGRGASTYADSVKGRFTISRDNAKNTVYLQMNSLKPEDTAVYYCAVAQVRVTYLWVRKFYYWGQGTQVTVSS", "testReadout": "polyreactivity (PSR sort gate)", "measValue": "high polyreactivity"}
{"chain": "QVQLVESGGGLVQAGGSLRLSSDASGSIFTAYSIGWYRQAPGKERELVADITQSAGSTYADSVKGRFTISRDNAKNTVYLQMNSLKPADTAVYYCAARYRYPYYARYGYWGQGTQVTVSS", "testReadout": "polyreactivity (PSR sort gate)", "measValue": "high polyreactivity"}

Please examine the following record next.
stdin: State the recorded polyreactivity (PSR sort gate) for this entry: `QVQLVESGGGLVQAGGSLRLSCAASGFIFAYYTMGWYRQAPGKEREFVASITYSGGNTYYADSVKGRFTISRDNAKNTVYLQMNSLKPEDTAVYYCATRDGYSISTTGLMDYWGQGTQVTVSS`
stdout: low polyreactivity

* * *

# procedureDetails: yeast display, Sf9 membrane polyspecificity reagent, FACS + sequencing; frameworks hold sequencing errors
testReadout: polyreactivity (PSR sort gate)

Take a look at these entries with their results.
{"chain": "QVQLVESGGGLVQAGGSLRLSCAASGRIFGTNAMGWYRQAPGKERELVATITRGGGNTYYADSVKGRFTISRDNAKNTVYLQMNSLKPEDTAVYYCAAYDSVQKYWILGFDYWGQGTQVTVSS", "testReadout": "polyreactivity (PSR sort gate)", "measValue": "low polyreactivity"}
{"chain": "QVQLVESGGGLVQAGGSLRLSCAASGLIFLGNAMGWYRQAPGKERELVAAISRSGGTTYYADSVKGRFTISRDNAKNTVYLQMNSLKPEDTAVYYCNAYNPYYRATVSSRGYGYWGQGTQVTVSS", "testReadout": "polyreactivity (PSR sort gate)", "measValue": "high polyreactivity"}
{"chain": "QVQLVESGGGLVQAGGSLRLSCAASGRIFSNNAMGWYRQAPGKERELVAAITNSGGSTYYADSVKGRFTISRDNAKNTVYLQMNSLKPEDTAVYYCAADHLSVPYDVYWTYSYWGQGTQVTVSS", "testReadout": "polyreactivity (PSR sort gate)", "measValue": "low polyreactivity"}
{"chain": "QVQLVESGGGLVQAGGSLRLSCAASGFIFFYYAMGWYRQAHGKERELVAAISASGGSTYYADSVKGRFTISRDNAKNTVYLQMNSLKPEDTAVYYCATDPISRARLYGQRDYWGQGTQVTVSS", "testReadout": "polyreactivity (PSR sort gate)", "measValue": "high polyreactivity"}

Shifting focus to the sequence that follows.
stdin: Fill in: polyreactivity (PSR sort gate) of `QVQLVESGGGLVQAGGSLRLSCAASGSIFTYYVMGWYRQAPGKERELVAAITISGGSTYYADSVKGRFTISRDNAKITVYLQMKSLKPEDTAVYYCAAEEVYYEADGFQYSYDYWGQGTLVTVSS` is ___
stdout: high polyreactivity

* * *

# procedureDetails: yeast display, Sf9 membrane polyspecificity reagent, FACS + sequencing; frameworks hold sequencing errors
testReadout: polyreactivity (PSR sort gate)

{"chain": "QVQLVESGGGLVQAGGSLRLSCAASGFTFVGNAMGWYRQAPGKARELVAAIRWTDGSTYYADSVKGRFTISRDNAKNTVYLHMNSLKPEDTAVYYCAKDYRDYARAGDYNVKQADDYWGQGTQVTVSS", "polyreactivity (PSR sort gate)": "low polyreactivity"}
{"chain": "QVQLVESGGGLVQAGGSLRLSCAASGSIFRSDPMGWYRQAPGKEREFVASITYRGGRTYYADSVKGRFTISRDNAKNTVSLQLNSLKPEDSAVYYCAARTRAGAWTSKYHDYWGQGTQVTVSS", "polyreactivity (PSR sort gate)": "high polyreactivity"}
{"chain": "QVQLVESGGGLVQAGGSLRLSFAASGSTFPVYTMGWYRQAPGKERELVAAITGSGGRTYYADSVKGRFTISRDNAKNTVYLQMNSLKPEDTAVYYCNAYPKGRYAAAFPGMDYWGQGTQVTVSS", "polyreactivity (PSR sort gate)": "high polyreactivity"}
{"chain": "QVQLVESGGGLVQAGGSLRLSCAASGLTFYGNAMGWYRQAPGKERELVAAISRGGRTYYADSVKGRFTISRDNAKNTVYLQMNSLKPEDTAVYYCATVVSRGKQPFDMDYWGQGTQVTVSS", "polyreactivity (PSR sort gate)": "low polyreactivity"}
{"chain": "QVQLVESGGGLVQAGGSLRLSCAASGFIFYYYAMGWYRQAPGKERELVAGIDKTGGSTYYADSVKGRFTISRDNAKNPVYLQMNSLKPDDTAVYYCNAPYYRGGKDGYWGQGTQVTVSS", "polyreactivity (PSR sort gate)": "high polyreactivity"}
{"chain": "QVQLVESGGGLVQAGGSLRLSCAASGSTSNTMTWDGIDRRLGKKGSWLPPITVSGGGTYYADSVKGRFTISRDNANNTVYLQMNSLKPEDTAVYYCATEYELAIYGDDYWGQGTQVTVSS", "polyreactivity (PSR sort gate)": "low polyreactivity"}

stdin: Look up polyreactivity (PSR sort gate) for this sequence: `QAQLVESGGGLVQAGRSLRLSCAASGSTFRWYAMGWYRQAPGKERELVAAITSSGSTYYADSVKGRFTISRDNAKTTVYLQMNSLKPEDTAVYYCAARANGYWNTYEHDYWGQGIQVTVSS`
stdout: low polyreactivity

stdin: Which measured polyreactivity (PSR sort gate) value corresponds to `QVQLVESGGGLVQAGGSLRLSCAASGFIFSSYAMGWYRQAPGKERELVAAISRGGSTYYADSVKGRFTISRDNAKNTVYLQMNSLKPEDTAVYYCNARRYRHDGYWGQGTQVTVSS` ?
stdout: high polyreactivity

stdin: For `QVQLVESGGGLVQAGGSLRLSCAASGSIFTPNAMGGYRQAPGKERELVAAISSSSDRTYYADSVKGRFTISRDNAKNTVYLQMNSLKPEDTAVYYCAAYAQQRYYWGQGTQVTVSS` , what is its reported polyreactivity (PSR sort gate)?
stdout: high polyreactivity

stdin: Report polyreactivity (PSR sort gate) for `QVQLVESGGGLVQAGGSLRLSCAASGHIFFYYTMGWYRQAPGKERELVAGITIGGSTNYADSVKGRFTISRDNAKNTVYLQMNSLKPEVTAVYYCARTVYGARSYDYWGQCTQVTVSS` please.
stdout: low polyreactivity

stdin: Looking for the measured polyreactivity (PSR sort gate) of `QFQLVESGGGIVQAGGSHRVICAASASTFARNAMGWYRQATGKESEFVATISSSGGRTYYADSVKGRFTISRDNAKNTVYLQMNSLKPEDTAVYYCAADYHIVWYEEYSWGQGTQVTVSS` , can you help?
stdout: high polyreactivity

stdin: So what's the measured polyreactivity (PSR sort gate) for this one? `QVQLVESGGCLVQAGGSLRLTCAASGFTLGFNAMGWYRQAPGKERELVAAITIGGTTYYADSVKGRFTLSRDNAKNTVYLQMNSLKPEDTAVYYCAASPVWWYDYWGQGTQVTVSS`
stdout: low polyreactivity

* * *

# procedureDetails: yeast display, Sf9 membrane polyspecificity reagent, FACS + sequencing; frameworks hold sequencing errors
testReadout: polyreactivity (PSR sort gate)

{"chain": "QVQLVESGGGLVQAGGSLRLTCAASGRIFAYYAMGWSRQAPGKERELVAAISSGGTTNYADSVKGRFTISRDNAKNTVYLQLTSLKPEDTAVYYCNADGWRRSRQYYYWGQGTQVTVSS", "polyreactivity (PSR sort gate)": "low polyreactivity"}
{"chain": "QVQLVESGGGLVQAGGSLRLICAASGRIFKVYAMGWYRQAPGKERELVAVITGGGSTNYADSVKGRFTISRDNAKNTVDLQMNSLKPEDTAVYYCATEGYGHGGETDGGVYSELGSWGQGTQVTVSS", "polyreactivity (PSR sort gate)": "low polyreactivity"}
{"chain": "QVQLVESGGGLFQAGGSLRLSFAASGIIFPYNLMGWYRQAPGKERELVAAITRGAASTYYADSVKGRFTISRDHEKNTVYLQMNSLKPEDTAVYFCNADGTWRTYNFWGQGTQVTVSS", "polyreactivity (PSR sort gate)": "high polyreactivity"}
{"chain": "QVQLVESGGGLVQAGGSLRLSCAASGFTFSRYAMGWYRPAPGKERELVAAITSSGGSTYYADSVKGRFTISRDNAKNTVYLQMNSLKPEDTAVYYCAAGKYTASNGYGYWGQGTQVTVSS", "polyreactivity (PSR sort gate)": "high polyreactivity"}

// next entry
stdin: Requested read-out: polyreactivity (PSR sort gate). Entry: `QDQLVESGGGLVQAGGSLRLSCAASGSIFAGYAMGWYRQAPGKESELVAAITSGGRTYYADSVKGRFTISRDNAKNTVYLQMNSLKPEDTAVYYCAKRWYTKTGYDYWGQGTQVTVSS`
stdout: high polyreactivity
